// data source = ChEMBL document CHEMBL1155914

target: Acetylcholinesterase (Electrophorus electricus, UniProt O42275)
Sequence (O42275 whole entry): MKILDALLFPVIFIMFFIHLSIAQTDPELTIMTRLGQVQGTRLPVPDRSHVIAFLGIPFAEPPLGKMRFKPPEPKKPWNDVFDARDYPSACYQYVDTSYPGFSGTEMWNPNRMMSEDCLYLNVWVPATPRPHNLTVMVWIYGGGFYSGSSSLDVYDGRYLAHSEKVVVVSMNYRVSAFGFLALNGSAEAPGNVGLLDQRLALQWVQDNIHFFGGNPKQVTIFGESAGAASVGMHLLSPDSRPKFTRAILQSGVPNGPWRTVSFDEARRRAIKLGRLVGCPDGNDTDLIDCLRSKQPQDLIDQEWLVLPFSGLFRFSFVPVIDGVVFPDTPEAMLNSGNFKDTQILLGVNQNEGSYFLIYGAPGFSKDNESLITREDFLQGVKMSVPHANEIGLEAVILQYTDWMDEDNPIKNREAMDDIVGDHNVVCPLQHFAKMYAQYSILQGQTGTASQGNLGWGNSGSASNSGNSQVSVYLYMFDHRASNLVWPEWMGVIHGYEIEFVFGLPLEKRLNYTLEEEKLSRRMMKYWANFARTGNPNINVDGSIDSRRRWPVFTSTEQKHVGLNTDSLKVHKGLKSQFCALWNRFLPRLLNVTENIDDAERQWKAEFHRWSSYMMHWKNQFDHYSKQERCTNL
Decide using Ki alone. Strictly below 60 nM: YES. Equal to or above 60 nM: NO.

Hi there! Is Ki for CC1(C)CC(=O)C2=C(C1)Nc1nc3c(c(N)c1C2c1ccncc1)CCCC3 (stereo unspecified) below 60 nM, do you know?
NO

Hi there! Is Ki for CC[N+](C)(CC)CCC[n+]1c(-c2ccccc2)c2cc(N)ccc2c2ccc(N)cc21 [PROPIDIUM] below 60 nM, do you know?
NO

Hi there! Is Ki for Cc1ccc(C2C3=C(CC(C)(C)CC3=O)Nc3nc4c(c(N)c32)CCCC4)cc1 (stereo unspecified) below 60 nM, do you know?
YES

Hi there! Is Ki for COc1ccc(C2C3=C(CC(C)(C)CC3=O)Nc3nc4c(c(N)c32)CCCC4)cc1 (stereo unspecified) below 60 nM, do you know?
YES

Hi there! Is Ki for CC1(C)CC(=O)C2=C(C1)Nc1nc3c(c(N)c1C2c1ccc(F)cc1)CCCC3 (stereo unspecified) below 60 nM, do you know?
NO
